Assayed system: Homeobox protein Hox-A13 (Mus musculus) (UniProt Q62424)
Sequence (Q62424 whole entry, looked up): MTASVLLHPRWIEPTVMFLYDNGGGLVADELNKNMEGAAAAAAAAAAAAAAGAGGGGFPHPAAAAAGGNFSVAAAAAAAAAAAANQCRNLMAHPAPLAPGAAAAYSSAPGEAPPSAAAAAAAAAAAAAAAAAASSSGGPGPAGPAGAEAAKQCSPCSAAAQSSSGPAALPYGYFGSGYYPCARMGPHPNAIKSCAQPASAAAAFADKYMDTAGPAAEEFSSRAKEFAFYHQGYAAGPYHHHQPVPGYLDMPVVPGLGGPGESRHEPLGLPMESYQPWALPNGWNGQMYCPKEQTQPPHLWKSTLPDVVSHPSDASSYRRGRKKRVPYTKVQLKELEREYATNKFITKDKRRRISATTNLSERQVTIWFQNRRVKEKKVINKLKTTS
Assay summary: inhibitors of HoxA13-DNA binding, primary screen, biochemical, fluorescence polarization, labeled oligonucleotide (AID 1185)
Conditions: 15 min, higher = more signal, called active from +8 up or from −8 down
Task for the reader: assign each of the following molecules its reported z-score.
# answer = number (no unit)

// returns reported z-score for input COCCOC(=O)N1C(=O)[C@@]2(c3cc(C#CCC(C(=O)OC)C(=O)OC)ccc31)[C@H](c1ccc(OCCO)cc1)N1[C@H](c3ccccc3)[C@H](c3ccccc3)OC(=O)[C@H]1[C@@H]2C(=O)N1CCCCCCC1 -15.5

Now the molecule CCC[C@@H]1[C@@H](Sc2ccccc2)[C@@H](C(=O)O)[C@H](c2ccc(C)cc2)N1S(=O)(=O)c1ccc(C)cc1 -5.85

C=C(COC)C(=O)CC[C@@H](OC(C)=O)c1ccc(OCCO)cc1 , same question. -4.63

Another molecule: COCCOC(=O)N1C(=O)[C@@]2(c3cc(C#CC4(O)CCCCCC4)ccc31)[C@H](C(=O)NC[C@H](O)c1ccccc1)[C@H]1C(=O)O[C@H](c3ccccc3)[C@H](c3ccccc3)N1[C@@H]2c1ccc(O)cc1 -1.8

What do you have for C=CCOC(=O)[C@H]1[C@@H]2C(=O)O[C@@H](c3ccccc3)[C@@H](c3ccccc3)N2[C@@H](c2ccc(OCCOC(=O)[C@@H]3C[C@@H]4C(=O)N[C@@H](CC(C)C)C(=O)N4[C@@H]3c3ccc(O)cc3)cc2)[C@]12C(=O)Nc1ccc(I)cc12 ? 0.999

---

System: wheat germ agglutinin (Triticum aestivum), Alexa647-labelled
Assay summary: wheat germ agglutinin binders on compound microarrays, profiling panel, artefact control for SMM control-protein annotation, biochemical, small-molecule microarray, 635/667 nm fluorescence (AID 1140);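 note: score merges 667 nm feature emission with signal to noise over triplicate slides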
Conditions: WGA-A647 binding, 635 nm fluorescence, higher = more signal
So I've got a bunch of compounds here, and I need their composite z-score values.
Quick one: just the number, no unit, thanks!

Please look up its composite z-score: N#Cc1ccc(C(O)C2C=CC3C(=O)N(c4ccccc4)C(=O)C3N2Nc2ccc([N+](=O)[O-])cc2)cc1 (centres undefined) 1.4

One more compound: O=C1c2ccccc2[C@](Cc2ccccc2I)(C(=O)O)[C@H](c2ccc(CO)cc2)N1Cc1ccccc1 0.471

Field entry: CCc1cccc(NC(=O)O[C@H]2[C@H](OC(=O)Nc3ccc4c(c3)OCO4)[C@H](OC(=O)Nc3ccc4c(c3)OCO4)[C@@H](OC)O[C@@H]2CO)c1 0.815

Would you kindly repeat that for COc1ccc([Si](C)(C)[C@H]2[C@H](CC(=O)N3Cc4ccccc4C[C@H]3CO)O[C@@]3(C(=O)N(Cc4cccc(N5C(=O)c6cccc7cccc5c67)c4)c4ccccc43)[C@@H]2C)cc1 ? 0.108

// next record CC(=O)n1cc(C(O)C2C=CC3C(=O)N(c4ccccc4)C(=O)C3N2Nc2ccccc2F)c2ccccc21 (centres undefined) 0.0832

Request: O=C1OCCC=C[C@H]2OC34C=CCN(CCN5CCOCC5)C(=O)[C@H]3N(CCCO)C(=O)[C@@H]4C12 (some centres undefined) -0.458

Same for COCCOC(=O)N1C(=O)[C@@]2(c3cc(C#CC4(O)CCCCCC4)ccc31)[C@H](C(=O)N1CCc3cc(OC)c(OC)cc3C1)[C@H]1C(=O)O[C@H](c3ccccc3)[C@H](c3ccccc3)N1[C@@H]2c1ccc(O)cc1 0.972

Okay, and CN1C(=O)[C@]2(CCC(=O)OC(C)(C)C)N=C(c3ccc(OCCCO)cc3)O[C@@H]2c2ccccc21 ? 0.182

And then CCOC(=O)C1=CC[C@@H](c2ccccc2)N(S(=O)(=O)C[Si](C)(C)C)[C@H]1c1ccccc1 , what is it? 0.862

What about C=CCC(OC(C)=O)[C@@H]1[C@@H](N(Cc2ccc(-c3ccccc3)cc2)C(=O)c2cccc3ccccc23)c2cc(OCCCO)ccc2N1C(=O)c1ccc2ccccc2c1 (some centres undefined) ? 0.104

# repeat for COC(=O)c1c(CC[C@@H](CO)NC(=O)N[C@@H](Cc2ccccc2)Cn2cc(-c3cncn3C)nn2)oc(C(C)=O)c1C(=O)OC 0.391

Repeat for the following compound: COCCOC(=O)N1C(=O)[C@@]2(c3cc(C#CCCO)ccc31)[C@H](c1ccccc1OCCO)N1[C@H](c3ccccc3)[C@H](c3ccccc3)OC(=O)[C@H]1[C@@H]2C(=O)N1CCc2cc(OC)c(OC)cc2C1 0.546

Then this compound: CCCC[C@H]1OB(O)C[C@H]2C1=C(COC)C[C@H]1C(=O)C=CC(=O)[C@H]12 0.106

And CC(C)C[C@@H]1NC(=O)[C@@]23C(=O)N[C@@H](Cc4ccccc4)C2[C@H](C)[C@@]2(C)O[C@H]2C3/C=C/C/C=C\CNC(=O)[C@@H](CC(C)C)NC1=O (some centres undefined) ? 0.393

---

Assay summary: PSAC antagonists in infected red cells, primary screen, cell-based, P. falciparum Indochina, OD700, 18 h (AID 1157)
Conditions: P. falciparum Indochina infected erythrocytes, osmotic lysis OD700, 18 h; higher = more signal, called active from +8 up or from −8 down
Recorded z-score determines the group label, using small value = under 0.04, mid value = from 0.04 up to 0.6, large value = 0.6 and over

For the record NCCCC[C@@H]1NC(=O)[C@H]2C[C@@H](C(=O)O)[C@@H](c3cccc(OCCO)c3)N2C1=O , report the class its z-score corresponds to. mid value

Moving on to the next compound: Cc1ccc(S[C@]2(C(=O)NCCN3CCOCC3)CC(=O)N(C3CCCCC3)[C@@H]2c2ccc(CO)cc2I)cc1 large value

Now this one: CC(C)C(=C=CC[C@@H](O)c1ccccc1OCCO)C[C@@H](O)c1cc(Cl)cc(Cl)c1O large value

Another compound to check: C=CCC(OC(C)=O)[C@@H]1[C@@H](N(Cc2cc3ccccc3o2)C(=O)Cc2ccc(OC)cc2)c2cc(OCCCO)ccc2N1C(=O)Cc1ccc2ccccc2c1 (some centres undefined) mid value

Entry to check: COCCn1c(C(=O)N2CCCC2)cc2c1C[C@H]1CN(C(=O)c3ccccc3)[C@@](Cc3ccccc3)(C(=O)OC)[C@@H]21 large value

Entry to check: COC(=O)[C@@]1(Cc2ccc(OC)cc2)[C@H]2c3cc(C(=O)N4CCCC4)n(CCc4ccc(OC)c(Br)c4)c3C[C@H]2CN1C(=O)c1ccccc1 mid value

For COc1ccc(CCNC(=O)[C@@]2(C)c3ccccc3C(=O)N(Cc3cc(C(F)(F)F)cc(C(F)(F)F)c3)[C@H]2c2ccc(CO)cc2)cc1 then? small value

Repeat with C#CCN([C@H](/C=C/C1CC1)[C@@H](O)Cc1ccccc1)[C@@H](Cc1ccccc1)C(=O)OC large value

Query Cc1c(NC(=O)/C(C#N)=C/c2ccc(Cl)cc2)c(=O)n(-c2ccccc2)n1C next small value

Same again, this time with O=C1OCCC/C=C\[C@H]2OC34C=CCN(Cc5ccccc5)C(=O)[C@H]3N(CCCCCO)C(=O)[C@@H]4C12 (some centres undefined) small value

What would you report for CCCCC(O)C1C=CC2C(=O)NC(=O)C2N1Nc1ccccn1 (centres undefined) ? mid value

Cool, now C=CCC(OC(C)=O)[C@@H]1[C@@H](N(Cc2cc3ccccc3o2)C(=O)c2ccc(-c3ccccc3)cc2)c2cc(OCCCO)ccc2N1C(=O)c1ccc2ccccc2n1 (some centres undefined) large value

Also O=c1cccc(-c2ccccc2C(F)(F)F)o1 ? mid value

Check COC(=O)Cn1c(C(=O)N(C)C)cc2c1C[C@H]1CN(C(=O)c3ccccc3)[C@@](Cc3ccc(OC)cc3)(C(=O)OC)[C@@H]21 too. large value

C=CCC(OC(C)=O)[C@@H]1[C@@H](N(Cc2ccc(-c3ccccc3)cc2)C(=O)c2ccc(-c3ccccc3)cc2)c2cc(OCCCO)ccc2N1C(=O)c1ccc2ccccc2n1 (some centres undefined) , same question. small value

Then this compound: C=C(CCCC)C(=O)CC[C@H](OC(=O)c1cccnc1)c1ccc(CO)o1 small value

What do you have for C[N+](C)(C)CCCC[C@@H]1NC(=O)[C@H]2C[C@@H](C(=O)NCCCCCNC(=O)CS)[C@@H](c3ccc(O)cc3)N2C1=O ? small value

Try this compound next: COCCOC(=O)N1C(=O)[C@@]2(c3cc(C#CCCO)ccc31)[C@H](c1ccc(O)cc1)N1[C@H](c3ccccc3)[C@H](c3ccccc3)OC(=O)[C@H]1[C@@H]2C(=O)N1CCc2cc(OC)c(OC)cc2C1 mid value

Now consider C=CCOC(=O)[C@H]1[C@@H]2C(=O)O[C@@H](c3ccccc3)[C@@H](c3ccccc3)N2[C@@H](c2ccc(OCCOC(=O)[C@@H]3C[C@@H]4C(=O)N[C@@H](CC(C)C)C(=O)N4[C@@H]3c3ccc(O)cc3)cc2)[C@]12C(=O)Nc1ccc(I)cc12 and answer again. small value

Next compound up: COCCOC(=O)N1C(=O)[C@@]2(c3cc(C#Cc4ccc(OC)cc4)ccc31)[C@H](C(=O)Nc1nc3ccccc3s1)[C@H]1C(=O)O[C@H](c3ccccc3)[C@H](c3ccccc3)N1[C@@H]2c1ccccc1OCCO mid value

Next up: COc1ccc(C(O)C2C=CC3C(=O)N(C)C(=O)C3N2Nc2ccc([N+](=O)[O-])cc2[N+](=O)[O-])cc1OCc1ccccc1 (centres undefined) large value

C#CCN(C/C=C/c1ccccc1)[C@H](CO[Si](C)(C)C(C)(C)C)c1ccccc1 ? small value

Input CC(C)C(=C=CC[C@@H](O)c1ccc(OCCO)cc1)CCO small value

O=C(NCC(F)(F)F)[C@@H]1c2ccccc2C(=O)N(CC23CC4CC(CC(C4)C2)C3)[C@H]1c1ccc(CO)cc1 , same question. small value

Next: COc1ccc(NN2C(C(O)c3cc(C(F)(F)F)cc(C(F)(F)F)c3)C=CC3C(=O)N(C4CCCCC4)C(=O)C32)cc1 (centres undefined) large value

Now the same for COC(=O)[C@]1(CO)N=C(c2ccc(OCCCO)cc2)O[C@@H]1c1ccccc1CN=[N+]=[N-] mid value

Similarly, CO[C@H]1O[C@H](CO)[C@@H](OC(=O)Nc2ccc(C(F)(F)F)cc2)[C@H](OC(=O)Nc2ccccc2-c2ccccc2)[C@H]1OC(=O)Nc1ccccc1-c1ccccc1 ? large value

And what about the compound COc1cc(OC)c(C(O)C2C=CC3C(=O)N(c4ccccc4)C(=O)C3N2Nc2ccccc2F)cc1Br (centres undefined) ? large value

Next entry: C=CC(CO)NC(=O)OCC1c2ccccc2-c2ccccc21 (centres undefined) mid value

Data provenance: PubChem BioAssay
